- tested on: Aminopeptidase N (Plasmodium falciparum (isolate 3D7))
- procedure details: malaria alanyl aminopeptidase activity blockers – biochemical, fluorogenic H-Leu-NHMec substrate, 1536-well (AID 1445);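 note: plate controls were DMSO full reaction for no effect and no enzyme background for full effect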
- stated conditions: recombinant M1AAP, H-Leu-NHMec fluorogenic kinetic assay; at 30 µM, active compounds read high unless noted
The campaign covered roughly 220,000 compounds. About 910 (0.41%) were called active. The entries come from a sample that favours actives as a whole. Entries with a potency or affinity are not part of this list.

[
  {
    "compound": "Cc1ccc(SCc2[nH]nc3c2C2(C(=O)N(C)c4ccccc42)C(C#N)=C(N)O3)cc1 (stereo not given)",
    "tested on": "Aminopeptidase N (Plasmodium falciparum (isolate 3D7))",
    "inhibition (%)": 5.03
  },
  {
    "compound": "O=C(CNC(=O)c1ccc(S(=O)(=O)N2CCCC2)cc1)N/N=C/c1ccc(Cl)cc1",
    "tested on": "Aminopeptidase N (Plasmodium falciparum (isolate 3D7))",
    "inhibition (%)": 3.87
  },
  {
    "compound": "CCOC(=O)C(NC(=O)C1CCCN1C(=O)OCc1ccccc1)C(=O)OCC (stereo not given)",
    "tested on": "Aminopeptidase N (Plasmodium falciparum (isolate 3D7))",
    "inhibition (%)": -8.77
  },
  {
    "compound": "Cc1c(Cc2ccccc2)c(=O)oc2cc(OC(=O)c3ccccc3)ccc12",
    "tested on": "Aminopeptidase N (Plasmodium falciparum (isolate 3D7))",
    "inhibition (%)": 1.43
  },
  {
    "compound": "O=C(Cn1nnc2ccccc21)Nc1ccccc1[N+](=O)[O-]",
    "tested on": "Aminopeptidase N (Plasmodium falciparum (isolate 3D7))",
    "inhibition (%)": -1.91
  }
]
